# testDescription: I.V. and P.O. Dosing in Mice
# Type: in vivo
# testConditions: dose po 50 mg/kg
experimentalReadout: HL_Lambda_z (h)
# unit: h | format: bare number

CCCOc1cnc(CN/C=C2\C(=O)NC(=O)c3ccc(C4CCCC4)cc32)cc1O [Example 538]    7.1
CC(C)(C)c1ccc2c(c1)/C(=C/NCc1cc(O)c(-c3ccccc3)cn1)C(=O)NC2=O [Example 531]    5.2

# query: HL_Lambda_z of entry CCCOc1cnc(CN/C=C2\C(=O)NC(=O)c3ccc(C(C)(C)C)cc32)cc1O [Example 530] 5.3

Can you check CCCOc1cnc(CNC=C2C(=O)NC(=O)c3ccc(I)cc32)cc1O [Example 364] next? 1.8
